target: T1, CEA-derived … (SEQ ID NO: 71)-HLA-A*0201 complex (biotin on the C-terminal biotinylation tag (enzymatic, BirA)); test: Biacore SPR, pMHC immobilised
T1 construct: also called soluble biotinylated HLA-A2-peptide complex; not shown: C-terminal biotinylation tag that replaces the transmembrane and cytoplasmic domains
measuredQuantity: koff

Recorded koff, per entry:
binder: SEQ ID NO 63 (receptor) MGHLPKPTLWAEPGSVITMDQPVTLRCQGGQETQEYRLYREKKTAPWITRIPQELVKKGQFPIPSITWEHAGRYRCYYGSDTSQWSASSDPLELVVTGVYIKPTLSAQPSPVVNSGGNVTLQCDSPWLADGFILCKEGEDEHPQCLNSQPHARGSSRAIFSVGPVSPSRRWWYRCYAYMSWSPYEWSLPSDLLELDVDG
observedResult: ≤ 2 s⁻¹
--
binder: SEQ ID NO 31 (receptor) MGHLPKPTLWAEPGSVITMDQPVTLRCQGGQETQEYRLYREKKTAPWITRIPQELVKKGQFPIPSITWEHAGRYRCYYGSDTAGRSESSDPLELVVTGVYIKPTLSAQPSPVVNSGGNVTLQCDSQVAFDGFILCKEGEDEHPQCLNSQPHARGSSRAIFSVGPVSPSRRWWYRCYAYPIWTPYEWSLPSDLLELDVDG
observedResult: ≤ 2 s⁻¹

As a next step, examine the binder that follows.
// query koff value for entry soluble high affinity c83 (SEQ ID NO: 19) ILT-like polypeptide (receptor, also called clone 83 (c83) ILT-2 polypeptide) MAGHLPKPTLWAEPGSVITMDQPVTLRCQGGQETQEYRLYREKKTAPWITRIPQELVKKGQFPIPSITWEHAGRYRCYYGSDTSQWSASSDPLELVVTGVYIKPTLSAQPSPVVNSGGNVTLQCDSQVAFDGFILCKEGEDEHPQCLNSQPHARGSSRAIFSVGPVSPSRRWWYRCYAYMSWSPYEWSLPSDLLELDVDG
≤ 2 s⁻¹
